- target desc: NAD-dependent protein deacetylase sirtuin-1 (Homo sapiens) (UniProt Q96EB6)
- Sequence (Q96EB6 whole entry, the tested form may be a part): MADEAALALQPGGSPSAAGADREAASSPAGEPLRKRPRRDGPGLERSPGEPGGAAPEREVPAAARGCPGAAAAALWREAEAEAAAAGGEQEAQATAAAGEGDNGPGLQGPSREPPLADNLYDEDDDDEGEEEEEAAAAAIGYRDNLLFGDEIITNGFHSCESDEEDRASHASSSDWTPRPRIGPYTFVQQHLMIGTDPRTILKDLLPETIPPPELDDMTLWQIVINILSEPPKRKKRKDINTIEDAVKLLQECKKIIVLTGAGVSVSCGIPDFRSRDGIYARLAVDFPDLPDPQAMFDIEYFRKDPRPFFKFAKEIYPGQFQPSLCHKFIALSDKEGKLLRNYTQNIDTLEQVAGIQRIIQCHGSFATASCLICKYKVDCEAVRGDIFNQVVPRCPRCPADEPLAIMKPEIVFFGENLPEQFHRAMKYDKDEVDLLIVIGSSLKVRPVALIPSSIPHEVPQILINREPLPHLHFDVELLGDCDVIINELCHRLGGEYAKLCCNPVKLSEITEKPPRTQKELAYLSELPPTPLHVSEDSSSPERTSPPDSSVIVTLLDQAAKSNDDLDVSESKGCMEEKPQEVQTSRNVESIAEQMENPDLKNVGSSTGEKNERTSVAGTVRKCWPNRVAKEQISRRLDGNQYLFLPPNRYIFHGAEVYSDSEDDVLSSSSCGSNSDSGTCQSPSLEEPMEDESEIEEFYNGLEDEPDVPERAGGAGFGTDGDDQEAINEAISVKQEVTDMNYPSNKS
- assay info: Activation of N-terminal His6-tagged SIRT1 (156 to 664 amino acid residues) (unknown origin) expressed in Escherichia coli BL21(DE3) using ac-RHKKac-AMC as substrate at 50 uM after 45 mins by fluorimetric analysis relative to control
property: max activation
State the value, then name its unit.

# example entries with known answers
[
  {
    "structure notation": "O=C(N/N=C/c1cc(Br)c(O)c(Br)c1O)c1ccc2c(c1)Cc1ccccc1-2",
    "max activation": "212%"
  },
  {
    "structure notation": "COc1cc(OC)cc(C(=O)N/N=C/c2cc(Br)c(O)c(Br)c2O)c1",
    "max activation": "112%"
  },
  {
    "structure notation": "O=C(N/N=C/c1cc(Br)c(O)c(Br)c1O)c1ccc(-c2ccccc2C(F)(F)F)cc1",
    "max activation": "216%"
  },
  {
    "structure notation": "O=C(Nc1ccccc1-c1cn2c(CN3CCNCC3)csc2n1)c1ccccc1",
    "max activation": "322%"
  }
]

Query :: Name the recorded max activation of the item O=C(N/N=C/c1cc(Br)c(O)c(Br)c1O)c1ccc(-c2ccco2)cc1 in your answer.
Result :: 374%

Query :: Name the recorded max activation of the item N#Cc1ccc2cc(C(=O)N/N=C/c3cc(Br)c(O)c(Br)c3O)ccc2c1 in your answer.
Result :: 433%

Query :: Name the recorded max activation of the item COc1c(/C=N/NC(=O)c2ccc(-c3ccccc3)cc2)cc(Br)c(O)c1Br in your answer.
Result :: 191%

Query :: Name the recorded max activation of the item O=C(Nc1ccccc1-c1cn2c(CN3CCNCC3)csc2n1)c1cc2ccccc2o1 in your answer.
Result :: 381%

Query :: Name the recorded max activation of the item O=C(N/N=C/c1cc(Br)c(O)c(Br)c1O)c1cccc(-c2ccccc2)c1 in your answer.
Result :: 212%

Query :: Name the recorded max activation of the item O=C(N/N=C/c1cc(Br)c(O)c(Br)c1O)c1ccc(C(F)(F)F)cc1 in your answer.
Result :: 161%
